# experiment summary: Rate of NO release (UV absorbance decay at 248 nm in pH 7.4 buffer)
# Format: physicochemical
# condition details: 0.25 mM diazeniumdiolate in 100 mM pH 7.4 phosphate buffer, 22° C., absorbance at 248 nm; t½=ln(2)/k
Give half-life at 0.25 mM for every item shown.
Number in min, nothing else.

Query block: Consider the compound shown here: CCCN(/[N+]([O-])=N/[O-])C(C)(C)C.[Na+] [Example 1] What is its recorded half-life at 0.25 mM?
Result block: 1.45

Query block: Entry CC(C)(C)N(CCO)/[N+]([O-])=N/[O-].[Na+] [Example 3] please
Result block: 3.42

Query block: Okay, and C=CCN(/[N+]([O-])=N/[O-])C(C)(C)C.[Na+] [Example 2] ?
Result block: 3.17
